Protein target, amino acids: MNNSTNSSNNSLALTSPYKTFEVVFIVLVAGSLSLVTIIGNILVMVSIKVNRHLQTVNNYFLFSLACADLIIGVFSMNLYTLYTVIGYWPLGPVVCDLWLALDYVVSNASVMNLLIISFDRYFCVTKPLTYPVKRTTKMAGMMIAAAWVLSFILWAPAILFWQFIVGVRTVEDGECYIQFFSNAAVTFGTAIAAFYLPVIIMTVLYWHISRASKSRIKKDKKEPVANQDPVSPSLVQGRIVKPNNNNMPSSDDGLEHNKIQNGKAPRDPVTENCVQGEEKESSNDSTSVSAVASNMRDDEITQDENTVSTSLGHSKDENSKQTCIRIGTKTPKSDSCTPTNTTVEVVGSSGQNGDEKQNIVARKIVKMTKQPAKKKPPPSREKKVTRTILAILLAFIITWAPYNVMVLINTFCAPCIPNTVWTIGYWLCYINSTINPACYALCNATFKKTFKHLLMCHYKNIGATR
Published pKi for the protein given by its sequence, assembled from different documents, is shown next.
When answering, recall that pKi equals minus log10 of the concentration in mol/L, and write that number alone.

The examples below pair each entry with its known result.
COc1ccc(S(=O)(=O)c2ccc([C@H](C)N3CCN(C4CCN(C(=O)c5ccccc5C)CC4)C[C@H]3C)cc2)c2c1OCO2 ... 8.33
C=C(c1ccc(S(=O)(=O)c2ccc(OC)cc2)cc1)C1CCN(C2CCN(C(=O)OCc3ccccc3)CC2)CC1 ... 9.35
COc1ccc([S+]([O-])c2ccc(C(C3CCCCC3)N3CCN(C4CCCCC4)CC3)cc2)cc1 (centres undefined) ... 7.77
CN(C)CCNC(=O)C1=C(Cc2ccncc2)c2ccccc2C1 ... 4.03
COc1ccc([S@+]([O-])c2ccc(C(=O)C3CCN(C4CCCCC4)CC3)cc2)cc1 ... 7.97
CSc1ccc2c(c1)C(C(C)c1ccccn1)=C(CCN(C)C)C2 (centres undefined) ... 6.04
C=C(c1ccc(S(=O)(=O)c2ccc(OC)cc2)cc1)C1CCN(C2CCN(S(=O)(=O)C(C)C)CC2)CC1 ... 9.80
O=C(c1cccc2ncccc12)N1CCC(N2CCC(Oc3ccc(S(=O)(=O)c4ccc5c(c4)OCO5)cc3)CC2)CC1 ... 9.30

Then this compound:
pKi for the protein given by its sequence with input C[N+](C)(C)C[C@@H]1C[S@](=O)[C@@](c2ccccc2)(C2CCCCC2)O1.[I-] equals 7.13

###

Target chain: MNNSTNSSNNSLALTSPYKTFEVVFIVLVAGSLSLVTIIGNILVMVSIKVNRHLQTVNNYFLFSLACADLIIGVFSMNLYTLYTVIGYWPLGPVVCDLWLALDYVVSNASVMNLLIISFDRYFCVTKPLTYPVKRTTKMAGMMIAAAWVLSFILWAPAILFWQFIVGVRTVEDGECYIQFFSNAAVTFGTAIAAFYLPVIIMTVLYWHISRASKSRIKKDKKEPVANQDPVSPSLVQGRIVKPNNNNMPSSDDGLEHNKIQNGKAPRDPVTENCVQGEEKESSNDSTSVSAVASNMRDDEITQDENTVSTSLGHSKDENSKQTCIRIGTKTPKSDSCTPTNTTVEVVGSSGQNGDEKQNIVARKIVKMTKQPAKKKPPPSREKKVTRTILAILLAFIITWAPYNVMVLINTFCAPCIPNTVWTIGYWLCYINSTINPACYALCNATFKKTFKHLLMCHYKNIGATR
Published Ki for the protein given by its sequence, assembled from different documents, is shown next.
Report only the number, with the unit nM understood.

The examples below pair each entry with its known result.
CCCCC1CCN(CCCN2C(=O)CCc3ccccc32)CC1 ... 204
CN1/C(=C/C=C/C=C/C2=[N+](CCCCCC(=O)NCCCCCCCCN3CCC(OC(=O)Nc4ccc(F)cc4-c4ccc(F)c(Cl)c4)CC3)c3ccccc3C2(C)C)C(C)(C)c2ccccc21 ... 0.62

So, COc1nsc(OCCCOCCCOCCCOc2nsnc2C2=CCCN(C)C2)n1 ? Its Ki was 63.1

So, C=C(c1ccc(S(=O)(=O)c2ccc(OC)cc2)cc1)C1CCN(C2CCN(C(=O)C3CC3)CC2)CC1 ? Its Ki was 0.26

So, C[N+]1(C)CCC[C@@H]1[C@@H]1C[S+]([O-])[C@](c2ccccc2)(C2CCCCC2)O1.[I-] (stereo in doubt; (-)-13) ? Its Ki was 95.5

So, Cc1ccsc1C(=O)N1CCC(N2CCC(Oc3ccc(S(=O)(=O)c4ccc5c(c4)OCO5)cc3)CC2)CC1 ? Its Ki was 0.2

So, COc1ccc([S@+]([O-])c2ccc(C(C#N)C3CCN(C4CCCCC4)CC3)cc2)cc1 (stereo partly drawn) ? Its Ki was 7.14

###

Published Ki for Muscarinic acetylcholine receptor M2 (Homo sapiens, UniProt P08172), assembled from different documents, is shown next.
Response field label takes Met when Ki is strictly below 20 nM and Not met in all other cases.

# count of solved cases: 5
CN(C)CCC1=C(C(C)(C)c2ccccn2)c2ccccc2C1 ... Met
C=C(c1ccc(S(=O)(=O)c2ccc(OC)cc2)cc1)C1CCN(C2CCN(S(=O)(=O)CC)CC2)CC1 ... Met
O=C(CCCNC(=O)CC(c1ccccc1)(c1ccccc1)c1ccccc1)NCCC(=O)NCC1CCCN(CC2CCCCC2)C1 (centres undefined) ... Met
OC(CCCN1CCN(c2ccccc2)CC1)(c1ccccc1)c1ccccc1 ... Not met
O=C(CN1CCCc2cnccc21)N1CCCCC1 ... Not met

Quick check: Ki of O=C(CN1CCCc2cnccc21)N1CCCC1 under 20 nM? Not met

Quick check: Ki of CN1CCC=C(c2nsnc2OCCCC2CCN(CCCN3C(=O)CCc4ccccc43)CC2)C1 under 20 nM? Not met

###

Published pKi for Muscarinic acetylcholine receptor M2 (Homo sapiens), assembled from different documents, is shown next.
Biological target: Muscarinic acetylcholine receptor M2 (Homo sapiens)
Sequence (P08172 whole entry): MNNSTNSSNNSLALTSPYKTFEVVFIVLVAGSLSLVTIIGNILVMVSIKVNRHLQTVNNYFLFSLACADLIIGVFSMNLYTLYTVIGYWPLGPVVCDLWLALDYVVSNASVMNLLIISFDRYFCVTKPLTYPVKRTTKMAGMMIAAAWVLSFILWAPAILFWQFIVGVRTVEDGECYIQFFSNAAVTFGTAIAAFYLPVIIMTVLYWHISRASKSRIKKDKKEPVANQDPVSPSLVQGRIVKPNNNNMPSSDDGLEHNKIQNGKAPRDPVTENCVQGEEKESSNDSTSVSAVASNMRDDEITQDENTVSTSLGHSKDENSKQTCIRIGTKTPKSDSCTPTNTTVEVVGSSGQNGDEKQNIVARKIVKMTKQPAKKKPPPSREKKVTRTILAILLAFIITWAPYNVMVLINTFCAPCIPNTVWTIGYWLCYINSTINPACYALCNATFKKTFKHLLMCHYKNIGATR
pKi: −log10 of the molar value.
Short version: pKi at least 8 is t, less is f.

O=C(CN1CCCc2ccccc21)N1CCCC1 ... f
O=C(COc1ccccc1)N1CCC(N2CCC(Oc3ccc(S(=O)(=O)c4ccc5c(c4)OCO5)cc3)CC2)CC1 ... f
CN1CCC[C@@H]1[C@@H]1C[S+]([O-])[C@@](c2ccccc2)(C2CCCCC2)O1 (stereo in doubt; (+)-9) ... f
Cc1cccc(C(=O)N2CCC(N3CCC(C4(c5ccc(C(=O)NC(C)C)cc5)OCCO4)CC3)CC2)c1N ... t
COc1ccc([S@@+]([O-])c2ccc(C(=O)C3CCN(C4CCCCC4)CC3)cc2)cc1 ... t

Assess whether reported pKi for CC(C)NC(=O)c1ccc(CC2CCN(C3CCN(C(=O)c4cccc5nc[nH]c45)CC3)CC2)cc1 sits at 8 or higher. f

Assess whether reported pKi for COc1nsnc1OCCCOCCCOCCCOc1nsnc1C1=CCCN(C)C1 sits at 8 or higher. f

###

Target: Muscarinic acetylcholine receptor M2 (Homo sapiens, UniProt P08172)
Sequence (P08172 whole entry): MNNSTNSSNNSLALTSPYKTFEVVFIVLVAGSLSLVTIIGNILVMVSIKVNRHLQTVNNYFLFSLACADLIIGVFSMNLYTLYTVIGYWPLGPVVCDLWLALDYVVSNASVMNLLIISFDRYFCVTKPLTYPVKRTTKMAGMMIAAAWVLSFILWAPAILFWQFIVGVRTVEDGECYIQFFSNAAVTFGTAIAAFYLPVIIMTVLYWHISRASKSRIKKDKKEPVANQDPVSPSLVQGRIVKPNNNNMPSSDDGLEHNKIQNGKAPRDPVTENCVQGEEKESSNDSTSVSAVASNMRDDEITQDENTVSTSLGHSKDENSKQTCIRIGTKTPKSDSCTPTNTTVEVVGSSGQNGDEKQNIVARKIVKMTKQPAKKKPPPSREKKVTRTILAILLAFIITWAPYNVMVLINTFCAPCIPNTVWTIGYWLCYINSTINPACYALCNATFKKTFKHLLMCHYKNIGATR
Published Ki for Muscarinic acetylcholine receptor M2 (Homo sapiens, UniProt P08172), assembled from different documents, is shown next.
Report only the number, with the unit nM understood.

Cc1nccn1CC#CCN1CCCC1=O ... 102
O=C(CCN1CCCc2ccccc21)N1CCC1 ... 1700
O=C(CCN1CCCc2ccccc21)N1CCC(O)CC1 ... 13200

Then this compound:
So, COc1ccccc1N1CCN(CCCNC(=O)NN(Cc2ccc(F)cc2)c2ccccc2)CC1 ? Its Ki was 17000
